Tested on: isolated forebrain mitochondria
experimental details: ATP production of isolated mitochondria (luciferase-based kinetic assay)
Assay type: biochemical, mouse
run conditions: 12 μM, starting 20 min after addition; DMSO 22498±358
Counter-ions that a name gives are not always drawn.
Tag: true if measured ATP production kinetics, amplitude of single exponential fit is not below 10000, false if it is.

- compound: "CCN(CCCc1ccccc1)CCCc1ccccc1 [ALVERINE CITRATE]"
  classification: "true"
- compound: "COc1ccccc1N1CCN(CC(O)COc2cccc3ccccc23)CC1 (stereo not shown)"
  classification: "true"
- compound: "CCCCOc1ccc(C(=O)CCN2CCCCC2)cc1 [DYCLONINE HYDROCHLORIDE]"
  classification: "true"
- compound: "N#CC(C#N)=NNc1ccc(OC(F)(F)F)cc1"
  classification: "true"
- compound: "O=C(/C=C/c1ccccc1)c1ccc(O)cc1 [4′-HYDROXYCHALCONE]"
  classification: "false"

====

Consider the following molecules and their measured Dendritic Mt CA readings.
Test system: primary forebrain neurons
experimental details: cells
run conditions: rescreen, 12.5 μM, 24 h, vs DMSO wells
Counter-ions that a name gives are not always drawn.

- molecule: "C#CCN(C)Cc1ccccc1 [PARGYLINE HYDROCHLORIDE]"
  Dendritic Mt CA (robust Z-scores): 3.75
- molecule: "CN1CCC(=C2c3ccccc3Sc3ccccc32)CC1 [PIMETHIXENE MALEATE]"
  Dendritic Mt CA (robust Z-scores): 2.57
- molecule: "Clc1ccc(Cn2c(CN3CCCC3)nc3ccccc32)cc1 [CLEMIZOLE HYDROCHLORIDE]"
  Dendritic Mt CA (robust Z-scores): 2.54
- molecule: "CC[C@H]1CN2CC[C@H]1C[C@@H]2[C@@H](O)c1ccnc2ccc(OC)cc12 [HYDROQUINIDINE]"
  Dendritic Mt CA (robust Z-scores): 2.19
- molecule: "O=C(/C=C/c1ccccc1)c1ccc(O)cc1 [4′-HYDROXYCHALCONE]"
  Dendritic Mt CA (robust Z-scores): 5.11

====

Test system: primary forebrain neurons
experimental details: cells
run conditions: Mus musculus, Neuron, 24 h, read-out: Mt Content (Dend Mt CA) EC50
pEC50: −log10 of the molar value. Where a name gives a salt, the structure may show the parent alone.
measure: pEC50

- compound: "CCCCOc1ccc(C(=O)CCN2CCCCC2)cc1 [DYCLONINE HYDROCHLORIDE]"
  value measured: 6.70
- compound: "CCN(CCCc1ccccc1)CCCc1ccccc1 [ALVERINE CITRATE]"
  value measured: 6.70
- compound: "COc1cc(O)c2c(=O)c(O)c(-c3ccc(O)c(O)c3)oc2c1 [RHAMNETIN]"
  value measured: 6.70

====

Tested on: primary neurons
experimental details: CellTiter-Glo luminescence-based ATP assay
Assay type: cell-based, mouse
run conditions: Mus musculus, Primary neuron; maximal percent increase relative to in-plate DMSO controls, dose response; read-out: ATP (Effect-size)
Where a name gives a salt, the structure may show the parent alone.
Consider the following compounds and their measured Emax readings.

- compound: "OC(CCN1CCCCC1)(c1ccccc1)C1CCCCC1 (centres unmarked) [trihexyphenidyl hydrochloride]"
  subject of test: "primary neurons"
  Emax: "17.8%"
- compound: "O=c1c(-c2ccc(O)cc2)coc2cc(O)cc(O)c12"
  subject of test: "primary neurons"
  Emax: "20.6%"
- compound: "O=C(c1ccc(F)cc1)C1CCN(CCn2c(=O)[nH]c3ccccc3c2=O)CC1 [ketanserin tartrate]"
  subject of test: "primary neurons"
  Emax: "19.1%"
- compound: "O=c1[nH]c2ccccc2n1CCCN1CCC(n2c(=O)[nH]c3cc(Cl)ccc32)CC1"
  subject of test: "primary neurons"
  Emax: "13%"
- compound: "Cc1ccccc1C(OCCN(C)C)c1ccccc1 (centres unmarked) [ORPHENADRINE CITRATE]"
  subject of test: "primary neurons"
  Emax: "14.3%"
- compound: "COc1ccccc1OCCNCC(O)COc1cccc2[nH]c3ccccc3c12 (centres unmarked)"
  subject of test: "primary neurons"
  Emax: "15.9%"
- compound: "O=c1[nH]c2ccccc2n1C1CCN(CCCC(c2ccc(F)cc2)c2ccc(F)cc2)CC1 [pimozide]"
  subject of test: "primary neurons"
  Emax: "20.4%"
- compound: "CC(CN(C)C)CN1c2ccccc2CCc2ccccc21 (centres unmarked) [trimipramine maleate]"
  subject of test: "primary neurons"
  Emax: "16.4%"
- compound: "OC(CCN1CCCCC1)(c1ccccc1)c1ccccc1 [PRIDINOL METHANESULFONATE]"
  subject of test: "primary neurons"
  Emax: "15.7%"
- compound: "CCN(CC)CC(=O)Nc1c(C)cccc1C [lidocaine hydrochloride]"
  subject of test: "primary neurons"
  Emax: "15.8%"
- compound: "CN(C)CCC=C1c2ccccc2COc2ccccc21 [doxepin hydrochloride]"
  subject of test: "primary neurons"
  Emax: "18.3%"
